# tested_system: human GPR120 (Homo sapiens)
# Construct: host or cells: HEK293 cells coexpressing Gqi5
# Sequence (Q5NUL3 1-361): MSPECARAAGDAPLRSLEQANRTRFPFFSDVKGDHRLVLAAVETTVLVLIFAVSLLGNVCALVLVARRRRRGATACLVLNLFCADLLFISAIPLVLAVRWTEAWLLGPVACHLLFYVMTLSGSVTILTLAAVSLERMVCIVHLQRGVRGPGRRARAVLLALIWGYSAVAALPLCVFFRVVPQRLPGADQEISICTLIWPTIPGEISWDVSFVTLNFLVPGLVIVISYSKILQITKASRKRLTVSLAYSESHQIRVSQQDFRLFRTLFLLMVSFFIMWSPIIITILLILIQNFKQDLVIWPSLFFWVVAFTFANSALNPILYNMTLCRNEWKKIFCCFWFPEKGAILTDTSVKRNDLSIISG
# assay_info: Intracellular Ca2+ (FLIPR Calcium 4, Flexstation) assay in human GPR120 stable HEK293 cell line coexpressing Gqi5
# Type: cell-based
# condition_description: 5 μM compound compared to the maximal activity of GW9508 at 6.7 μM (100%)
value_kind: % Activity at 5 μM (%)

Here's what some known entries look like.
CCc1cc(OCc2cc(C)nn2-c2ccc(Cl)cc2)ccc1CCC(=O)O = 103
Cc1cc(COc2c(F)cc(CC(C)C(=O)O)cc2F)n(-c2ccc(Br)cc2)n1 (stereo not drawn) = 109
Cc1onc(-c2ccccc2)c1COc1c(F)cc(CC(C)C(=O)O)cc1F (stereo not drawn) = 94
Cc1onc(-c2c(Cl)cccc2Cl)c1COc1c(F)cc(CCC(=O)O)cc1F = 75
Cc1cc(COc2c(F)cc(CC(C)C(=O)O)cc2F)n(-c2ccc(C(N)=O)cc2)n1 (stereo not drawn) = 9

[a] Cc1cc(COc2ccc(CC(C)C(=O)O)cc2)n(-c2ccc(Cl)cc2)n1 (stereo not drawn)
[b] C/C(=C\C(=O)O)CCc1ccc(OCc2snnc2-c2ccc(Cl)cc2)cc1
Which entry has a larger number for % Activity at 5 μM, a or b ? Select an item and report its label.
a
(a: 98%, b: 62%)

Just for reference, patent US20100216827A1 is where these values come from.
